Tested on: isolated rat duodenum
Experiment: Spasmolytic activity of papaverinic type, barium chloride contracture
Details: Tyrode 38°, read-out: Spasmolytic activity Papaverinic type DE 50 (converted)
Procedure: a. To show activity of the papaverinic type, the contracturant used is barium chloride acting on the isolated rat duodenum. The average activity of the substances studied has been effected by determining graphically their DE 30 and DE 50 these being expressed in μg for 20 ml of bath.
quantity-kind: EC50 (mg/L)
Kindly provide the numeric value in mg/L only, without the unit symbol.

Some compounds with recorded EC50:
Req: What value of EC50 has been reported for the following compound? C=CCC(Cc1csc2ccccc12)C(=O)OCCN1CCCCC1 (centres unmarked)
Resp: 2

Req: What value of EC50 has been reported for the following compound? O=C(OCCCN1CCCCC1)C(Cc1cccs1)Cc1csc2ccccc12 (centres unmarked)
Resp: 0.4

Req: What value of EC50 has been reported for the following compound? O=C(OCCCN1CCCCCC1)C(Cc1csc2ccccc12)CC1CCCO1 (centres unmarked)
Resp: 0.8

Req: What value of EC50 has been reported for the following compound? CCN(CC)CCCOC(=O)C(Cc1cccs1)Cc1csc2ccccc12 (centres unmarked)
Resp: 0.85

---
Req: What value of EC50 has been reported for the following compound? CCN(CC)CCCOC(=O)C(Cc1csc2ccccc12)CC1CCCO1 (centres unmarked)
Resp: 0.4

Req: What value of EC50 has been reported for the following compound? O=C(OCCCN1CCCC1)C(Cc1ccccc1)Cc1csc2ccccc12 (centres unmarked)
Resp: 1.4

Req: What value of EC50 has been reported for the following compound? C=CCC(Cc1csc2ccccc12)C(=O)OCCCN(CC)CC (centres unmarked)
Resp: 0.225
